- SYSTEM: T1, human TNFR1 (human, UniProt P19438 30-455)
- T1 construct: whole, on cells
- T1 sequence (looked up): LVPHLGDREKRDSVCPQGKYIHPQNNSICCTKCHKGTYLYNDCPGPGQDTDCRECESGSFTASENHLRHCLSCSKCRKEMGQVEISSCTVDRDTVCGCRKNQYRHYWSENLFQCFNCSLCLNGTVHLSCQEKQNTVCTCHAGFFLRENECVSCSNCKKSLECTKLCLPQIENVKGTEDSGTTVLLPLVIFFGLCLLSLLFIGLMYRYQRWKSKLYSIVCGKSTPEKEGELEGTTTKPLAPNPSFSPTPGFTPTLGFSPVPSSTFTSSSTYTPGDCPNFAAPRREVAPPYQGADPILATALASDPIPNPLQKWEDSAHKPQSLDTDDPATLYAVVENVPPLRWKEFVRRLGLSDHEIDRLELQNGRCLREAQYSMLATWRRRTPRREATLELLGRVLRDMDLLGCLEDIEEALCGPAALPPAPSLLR
- ASSAY_DETAILS: flow cytometry, HEK293 transfectants
MEASURE: binding result

30A12 (antibody, IgG4, V domains shown, also called 4878-1) VH: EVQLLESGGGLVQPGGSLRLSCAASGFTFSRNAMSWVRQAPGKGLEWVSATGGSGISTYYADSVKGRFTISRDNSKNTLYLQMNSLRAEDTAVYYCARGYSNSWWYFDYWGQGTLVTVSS VL: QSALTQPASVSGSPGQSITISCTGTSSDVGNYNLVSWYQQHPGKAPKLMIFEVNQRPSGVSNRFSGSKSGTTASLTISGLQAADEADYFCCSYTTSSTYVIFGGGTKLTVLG | no binding
35F11 (antibody, IgG4, V domains shown, also called 4868-1) VH: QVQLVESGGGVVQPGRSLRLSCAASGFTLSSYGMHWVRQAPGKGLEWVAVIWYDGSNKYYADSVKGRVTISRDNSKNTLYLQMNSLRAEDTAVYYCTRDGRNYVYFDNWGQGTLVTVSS VL: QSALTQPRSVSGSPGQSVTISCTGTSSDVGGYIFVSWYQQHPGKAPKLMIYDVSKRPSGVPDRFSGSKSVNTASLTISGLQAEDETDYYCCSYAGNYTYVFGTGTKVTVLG | no binding
39C2 (antibody, IgG4, V domains shown, also called 4887-1) VH: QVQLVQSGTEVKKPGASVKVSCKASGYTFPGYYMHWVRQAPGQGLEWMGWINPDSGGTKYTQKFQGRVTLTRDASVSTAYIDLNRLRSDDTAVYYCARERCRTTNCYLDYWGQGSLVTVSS VL: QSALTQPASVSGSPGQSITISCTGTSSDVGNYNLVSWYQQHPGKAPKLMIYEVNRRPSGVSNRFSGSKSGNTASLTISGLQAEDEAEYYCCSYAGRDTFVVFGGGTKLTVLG | no binding
